Biological target: SLAMF9 protein (UniProt Q96A28 19-236, limits assumed)
Sequence (Q96A28 19-236 limits assumed): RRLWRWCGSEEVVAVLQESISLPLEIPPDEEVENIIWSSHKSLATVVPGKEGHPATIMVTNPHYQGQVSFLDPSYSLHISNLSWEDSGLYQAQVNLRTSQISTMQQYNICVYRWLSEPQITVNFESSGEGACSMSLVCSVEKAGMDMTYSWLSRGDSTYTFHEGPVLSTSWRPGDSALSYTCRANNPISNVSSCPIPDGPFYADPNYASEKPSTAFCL
Assay: phage clone on SLAMF9 protein

- binder: "ET200-124 (scFv, screened as phage clone; entry is VL-linker-VH-His tag-HA tag) scFv: SYVLTQPPSVSVAPGKTARISCGGNDIGSKSVFWYQQRPGQAPVLVVYDDSDRPSGLPERFSGFNSGNTATLTISRVEAGDEADYYCQVWDSSSDHYVFGTGTKVTVLGSRGGGGSGGGGSGGGGSLEMAQVQLVESGGGLVQPGRSLRLSCAASGFTFDDYAMHWVRQAPGKGLEWVSGISWNSGSIGYADSVKGRFTISRDNAKNSLYLQMNSLRAEDTALYYCAKDITYGSGSYGAFDIWGQGTMVTVSSTSGQAGQHHHHHHGAYPYDVPDYAS"
  binding result: "no binding"
- binder: "ET200-104 (scFv, screened as phage clone; entry is VL-linker-VH-His tag-HA tag) scFv: NFMLTQPHSVSESPGKTVTISCTRSSGSIASNYVQWYQQRPGSAPTTVIYEDNQRPSGVPDRFSGSIDSSSNSASLTISGLKTEDEADYYCQSYDSSNVVFGGGTKVTVLGSRGGGGSGGGGSGGGGSLEMAEVQLVESGGGLVQPGGSLRLSCAASGFTFSSYEMNWVRQAPGKGLEWVSYISSSGSTIYYADSVKGRFTISRDNAKNSLYLQMNSLRAEDTAVYYCARWDYGMDVWGQGTTVTVSSTSGQAGQHHHHHHGAYPYDVPDYAS"
  binding result: "no binding"
